This collection of values is drawn from FireProtDB (doi:10.1021/bi060907v).

# change of melting temperature, mutant - wild type (higher = more stable) per entry
B1: Ribonuclease HII, O74035 (parent)
chain: MKIAGIDEAGRGPVIGPMVIAAVVVDENSLPKLEELKVRDSKKLTPKRREKLFNEILGVLDDYVILELPPDVIGSREGTLNEFEVENFAKALNSLKVKPDVIYADAADVDEERFARELGERLNFEAEVVAKHKADDIFPVVSAASILAKVTRDRAVEKLKEEYGEIGSGYPSDPRTRAFLENYYREHGEFPPIVRKGWKTLKKIAEKVESEKKAEERQATLDRYFRKV

Variants of: B1
Settings: Thermococcus kodakarensis (strain ATCC BAA-918 / JCM 12380 / KOD1); pH 9; Thermal; DSC; Gly-NaOH 20 mM; reversible: Yes; structure 1IO2; whole UniProt chain shown
metric: change of melting temperature, mutant - wild type (higher = more stable) (°C)

- mutation descriptor: "D135A"
  measured number: 5.2
- mutation descriptor: "E8A"
  measured number: 8
- mutation descriptor: "D105A"
  measured number: 4.2
- mutation descriptor: "D7N"
  measured number: 3.1
- mutation descriptor: "E8Q"
  measured number: 0.6
